# Tested on: IGROV1 ovarian
# protocolSummary: NCI tumour cell line growth inhibition, 48 h
quantityKind: TGI

Answered examples (3):
In [3]: df
Out[3]:
                                   compound  quantitykind  experimentalresult
0  CCN(CC)c1ccc(C2CC(c3cc(OC)c(OC)c(OC)c3)=NN2)cc1 (stereo unspecified)           TGI           > 25.1 µM
1  COC(=O)C(Cc1cnc[nH]1)NC(=O)CNC(=O)CCCn1c(=O)c2c3ccccc3n(C)c2n2nnc(-c3ccccc3)c12 (stereo unspecified)           TGI            > 100 µM
2  NC1OC(COC(=O)c2ccccc2)C(O)C(OC(=O)c2ccccc2)C1OC(=O)c1ccccc1 (stereo unspecified)           TGI             35.9 µM

Lookup: Query TGI for Cc1ccccc1N=CN(C)C
Found: > 100 µM

Lookup: Query TGI for COc1ccccc1-c1cc(/C=C2\C(=O)Nc3ncc(Br)cc32)cc(Br)c1O
Found: > 25 µM

Lookup: Query TGI for CC1=C(C)CC(C#N)(C#N)C(C#N)(C#N)C1
Found: > 5.87 µM

Lookup: Query TGI for CCN(CC)C(=S)SNc1ccc(S(N)(=O)=O)cc1
Found: > 100 µM

Lookup: Query TGI for C=CCc1c(C)nc(C)nc1N/N=C/C=C/c1ccccc1
Found: > 100 µM

Lookup: Query TGI for CCSC(SCC)c1cc2c(cc1Br)OCO2
Found: > 100 µM

Lookup: Query TGI for CCn1ncc2c1nc(-c1ccccc1)c[n+]2[O-]
Found: > 100 µM

Lookup: Query TGI for Nc1nc(Cl)cc(NCCCNc2cc(Cl)nc(N)n2)n1
Found: > 100 µM

====

# System: RXF 393 renal
# protocolSummary: NCI tumour cell line growth inhibition, 48 h
TGI listing for selected molecules.
Please give a number only; it is taken to be in µM.

Answered examples (3):
In [3]: df
Out[3]:
                                   molecule  targetundertest  quantitykind  scaleunit  experimentalresult
0  Cc1ccc2c(c1)C(C)Cc1c(ncnc1-n1cnc3cc(C)ccc31)N2C (stereo not given)    RXF 393 renal           TGI         µM                8.74
1  CCN1CCN(c2nc3ccccc3nc2C(=O)c2ccc(OC)cc2)CC1    RXF 393 renal           TGI         µM                43.5
2  COc1cc(-c2nc(NC(C)=O)sc2-c2ccnc(NCCNS(=O)(=O)c3ccccc3)n2)ccc1Cl    RXF 393 renal           TGI         µM                7.53

// next item, TGI requested
Lookup: Query TGI for CC1C(=NO)C(C)C(c2ccccc2)N(N=O)C1c1ccccc1 (stereo not given)
Found: 32.7

====

# System: K-562 leukemia
# protocolSummary: NCI tumour cell line growth inhibition, 48 h
TGI listing for selected molecules.

molecule	TGI
COc1ccc(C2=Nn3c(nc4sc(C)c(C)c4c3=O)SC2)cc1	> 100 µM

// next item, TGI requested
Lookup: Query TGI for O=C1/C(=C\c2ccc(F)cc2)CN(C(=O)c2ccc([N+](=O)[O-])cc2)C/C1=C\c1ccc(F)cc1
Found: > 43.2 µM

The reported measurements were obtained from PubChem BioAssay (NCI).
